Biological target: Progesterone receptor (Homo sapiens)
Experiment: qHTS assay to identify small molecule antagonists of the progesterone receptor (PR) signaling pathway (AID 1346795)
Details: PR-UAS-bla HEK293T, beta-lactamase FRET ratio, 16 h; series mostly up to 92.4 µM
From the text: National Center for Advancing Translational Sciences [NCATS] NIH Chemical Genomics Center [NCGC] U.S. Environmental Protection Agency [EPA] National Institutes of Environmental Health Sciences [NIEHS] National Toxicology Program [NTP] U.S. Food and Drug Administration [FDA] Progesterone receptor (PR), a nuclear hormone receptor, plays an important role in development, metabolic homeostasis and reproduction. […]
Records with an inconclusive call do not appear. Active and inactive are the calls of the source. Calls come from the whole dose curve; as a rule, active = well fitted inhibition curve with a large enough effect in the signal ratio in the repeat runs (not every such curve was filed as active); inconclusive = weak or mixed curves; inactive = flat fitted curve, though single readings scatter; the % refers to the signal ratio.
Classes used: t for active, f for inactive

>  <compound>
Cn1cccc1

>  <target.desc>
Progesterone receptor (Homo sapiens)

>  <label.class>
f

$$$$
>  <compound>
CCC(C)(C)c1cc(O)c(C(C)(C)CC)cc1O

>  <target.desc>
Progesterone receptor (Homo sapiens)

>  <label.class>
f

$$$$
>  <compound>
CN1CN(C)CN(C)C1

>  <target.desc>
Progesterone receptor (Homo sapiens)

>  <label.class>
f

$$$$
>  <compound>
CCCCCCS

>  <target.desc>
Progesterone receptor (Homo sapiens)

>  <label.class>
f

$$$$
>  <compound>
CNC(=O)c1cc(Oc2ccc(NC(=O)Nc3ccc(Cl)c(C(F)(F)F)c3)cc2)ccn1

>  <target.desc>
Progesterone receptor (Homo sapiens)

>  <label.class>
t

$$$$
>  <compound>
CC(C)(C)c1n[nH]c(=O)n(N)c1=O

>  <target.desc>
Progesterone receptor (Homo sapiens)

>  <label.class>
f

$$$$
>  <compound>
O=C(Nc1ccc(Cl)c(Cl)c1)c1cc(Cl)cc(Cl)c1O

>  <target.desc>
Progesterone receptor (Homo sapiens)

>  <label.class>
t

$$$$
>  <compound>
O=C[C@H](O)[C@H](O)[C@H](O)CO

>  <target.desc>
Progesterone receptor (Homo sapiens)

>  <label.class>
f

$$$$
>  <compound>
CCOC(=O)COc1ccc(C)cc1

>  <target.desc>
Progesterone receptor (Homo sapiens)

>  <label.class>
f

$$$$
>  <compound>
C=CC(=O)OCCOCC(CC)(COCCOC(=O)C=C)COCCOC(=O)C=C

>  <target.desc>
Progesterone receptor (Homo sapiens)

>  <label.class>
t

$$$$
>  <compound>
Cc1cnccn1

>  <target.desc>
Progesterone receptor (Homo sapiens)

>  <label.class>
f

$$$$
>  <compound>
Cc1cc2c(C(C)C)c(O)c(O)c(C=O)c2c(O)c1-c1c(C)cc2c(C(C)C)c(O)c(O)c(C=O)c2c1O

>  <target.desc>
Progesterone receptor (Homo sapiens)

>  <label.class>
t

$$$$
>  <compound>
O=C1OC(=O)c2ccc3c4c(ccc1c24)C(=O)OC3=O

>  <target.desc>
Progesterone receptor (Homo sapiens)

>  <label.class>
f

$$$$
>  <compound>
CC(=O)OC1CCCCC1

>  <target.desc>
Progesterone receptor (Homo sapiens)

>  <label.class>
f

$$$$
>  <compound>
CCCC(O)C(O)CO (stereo not drawn)

>  <target.desc>
Progesterone receptor (Homo sapiens)

>  <label.class>
f

$$$$
>  <compound>
CSc1c(Cl)c(Cl)c(Cl)c(Cl)c1Cl

>  <target.desc>
Progesterone receptor (Homo sapiens)

>  <label.class>
f

$$$$
>  <compound>
CC(=O)C=O

>  <target.desc>
Progesterone receptor (Homo sapiens)

>  <label.class>
f

$$$$
>  <compound>
CCOCOCC

>  <target.desc>
Progesterone receptor (Homo sapiens)

>  <label.class>
f

$$$$

* * *

experiment: qHTS assay for small molecules that induce genotoxicity in human embryonic kidney cells expressing luciferase-tagged ATAD5 - cell viability (AID 651634); details: HEK293T ATAD5-luc cells viability, CellTiter-Fluor, 15.5 h; series mostly up to 83.3 µM; note: nearly all actives have a fitted effect of over 25% in size
Results filed as inconclusive are left out. The source made the active and inactive calls. Calls come from the whole dose curve.
Possible outcomes: class 1 (active), class 0 (inactive)

>  <molecule>
CC(C(O)c1ccccc1)N(C)CCOC(c1ccccc1)c1ccccc1 (stereo unspecified)

>  <label.class>
class 0

$$$$
>  <molecule>
CCc1ccc(O)c(C(C)(C)C)c1

>  <label.class>
class 0

$$$$
>  <molecule>
C=C1C(C)(C)[C@@]2(Cl)C(Cl)[C@]1(Cl)C(Cl)(Cl)C2(Cl)Cl (stereo partly specified)

>  <label.class>
class 0

$$$$
>  <molecule>
CCCCCCC(C)OC(=O)COc1nc(F)c(Cl)c(N)c1Cl (stereo unspecified)

>  <label.class>
class 0

$$$$
>  <molecule>
Clc1ccc(C(c2ccccc2Cl)C(Cl)Cl)cc1 (stereo unspecified)

>  <label.class>
class 0

$$$$
>  <molecule>
COc1cccc(CCc2ccccc2OCC(CN(C)C)OC(=O)CCC(=O)O)c1 (stereo unspecified)

>  <label.class>
class 0

$$$$
>  <molecule>
Cc1cc(Nc2ccc(O)cc2)ccc1N

>  <label.class>
class 1

$$$$
>  <molecule>
CC(C)=C1CC[C@@H](C)CC1=O

>  <label.class>
class 0

$$$$
>  <molecule>
NCCCCCCNCCCCCCN

>  <label.class>
class 0

$$$$
>  <molecule>
C[C@@H]1CC[C@H]2C(C)(C)[C@H]3C[C@@]12CC[C@@]3(C)O

>  <label.class>
class 0

$$$$
>  <molecule>
NC(=O)C(=O)N/N=C/c1ccc([N+](=O)[O-])o1

>  <label.class>
class 0

$$$$
>  <molecule>
CCCCCCOc1ccc(O)cc1

>  <label.class>
class 0

$$$$
>  <molecule>
Brc1ccccc1-c1ccccc1

>  <label.class>
class 0

$$$$
>  <molecule>
CCCCCCCC/C=C\CCCCCCCC(=O)OCCOC(=O)CCCCCCC/C=C\CCCCCCCC

>  <label.class>
class 0

$$$$
>  <molecule>
CC(C)c1cccc(C(C)C)c1N1C(=O)c2ccc(O)cc2C1=O

>  <label.class>
class 0

$$$$
>  <molecule>
C=CC(=O)OCCOCC(CC)(COCCOC(=O)C=C)COCCOC(=O)C=C

>  <label.class>
class 1

$$$$
>  <molecule>
O=C1c2c(O)ccc(O)c2C(=O)c2c(NCCNCCO)ccc(NCCNCCO)c21

>  <label.class>
class 1

$$$$
>  <molecule>
CC(CN(C)C)CN1c2ccccc2CCc2ccccc21 (stereo unspecified)

>  <label.class>
class 0

$$$$
>  <molecule>
O=C1OC(=O)c2cccc3cccc1c23

>  <label.class>
class 0

$$$$
>  <molecule>
COc1cc(C(C)C)c2c(c1)S(=O)(=O)N(COc1cc(=O)n3cccc(OCCN4CCCCC4)c3n1)C2=O

>  <label.class>
class 0

$$$$
>  <molecule>
Cc1cccc(C)c1NC(=O)CN1CCN(CCCC(c2ccc(F)cc2)c2ccc(F)cc2)CC1

>  <label.class>
class 0

$$$$
>  <molecule>
COC(=O)CC#N

>  <label.class>
class 0

$$$$
>  <molecule>
CCC(=O)OCCc1ccccc1

>  <label.class>
class 0

$$$$
>  <molecule>
N[C@@H](CSSC[C@H](N)C(=O)O)C(=O)O

>  <label.class>
class 0

$$$$
>  <molecule>
CC(C)(C)C1=CC(=O)C=C(C(C)(C)C)C1=O

>  <label.class>
class 1

$$$$
>  <molecule>
Oc1ccc(-c2ccccc2)c(Cl)c1

>  <label.class>
class 0

$$$$

* * *

assay: A CellTox Green Cytotoxicity Assay to monitor cytotoxicity in HepG2 cells - 32 hour (AID 1224883); details: CellTox Green fluorescence; series mostly up to 76.8 µM; note: nearly all actives have a fitted effect of over 50% in size
Results filed as inconclusive are left out. Calls of active or inactive are those of the source. Calls follow the shape of the dose curve; as a rule, active = well fitted activation curve with a large enough effect in the repeat runs; inconclusive = weak or mixed curves; inactive = flat fitted curve, though single readings scatter.
Outcomes: active, inactive

>  <molecule>
CO[Si](CCC1CCC2OC2C1)(OC)OC (configuration not stated)

>  <label.class>
inactive

$$$$
>  <molecule>
COc1cccc(O)c1

>  <label.class>
inactive

$$$$
>  <molecule>
OCCN1CN(CCO)CN(CCO)C1

>  <label.class>
inactive

$$$$
>  <molecule>
CCCC(O)C(O)CO (configuration not stated)

>  <label.class>
inactive

$$$$
>  <molecule>
CCOCOCC

>  <label.class>
inactive

$$$$
>  <molecule>
CCCCCCCCCCCCCCCC

>  <label.class>
inactive

$$$$
>  <molecule>
Clc1nc2ccccc2s1

>  <label.class>
inactive

$$$$
>  <molecule>
Cn1cccc1

>  <label.class>
inactive

$$$$
>  <molecule>
COc1cccc(OC)c1O

>  <label.class>
inactive

$$$$
>  <molecule>
CCCC(C)CCC(C)=O (configuration not stated)

>  <label.class>
inactive

$$$$
>  <molecule>
CC(C)=CC1CC(C)CCO1 (configuration not stated)

>  <label.class>
inactive

$$$$
>  <molecule>
CCCN(CCc1cccs1)[C@H]1CCc2c(O)cccc2C1

>  <label.class>
active

$$$$
>  <molecule>
Cc1occc1SSc1ccoc1C

>  <label.class>
active

$$$$
>  <molecule>
O=C(O)CC(=O)O

>  <label.class>
inactive

$$$$
>  <molecule>
Cc1cnccn1

>  <label.class>
inactive

$$$$
>  <molecule>
COc1ccc2sc(C(=O)Nc3nnn[nH]3)c(OC(C)C)c2c1

>  <label.class>
inactive

$$$$
>  <molecule>
O=C(O)CCCCCCC(=O)O

>  <label.class>
inactive

$$$$
>  <molecule>
Oc1c(Br)cc(Br)c2cccnc12

>  <label.class>
inactive

$$$$
>  <molecule>
CN(C)c1ccc(N=NS(=O)(=O)O)cc1

>  <label.class>
inactive

$$$$
>  <molecule>
CC(C)=C1CC[C@@H](C)CC1=O

>  <label.class>
inactive

$$$$
>  <molecule>
Oc1ccc(-c2ccccc2)c(Cl)c1

>  <label.class>
active

$$$$
>  <molecule>
O=C1OC(=O)c2cccc3cccc1c23

>  <label.class>
inactive

$$$$
>  <molecule>
O=Nc1ccc(NO)cc1

>  <label.class>
inactive

$$$$
>  <molecule>
CCCCCCCOC(=O)c1ccccc1C(=O)OCCCCCCC

>  <label.class>
inactive

$$$$
>  <molecule>
CCCCCCOc1cc(C)c(O)c(C)c1C

>  <label.class>
active

$$$$
>  <molecule>
CC[N+](CC)(CC)Cc1ccccc1

>  <label.class>
inactive

$$$$
>  <molecule>
COC(=O)CC(C)CCC=C(C)C (configuration not stated)

>  <label.class>
inactive

$$$$
>  <molecule>
CC(CN(C)C)CN1c2ccccc2CCc2ccccc21 (configuration not stated)

>  <label.class>
active

$$$$
>  <molecule>
CCCCCCCCCCCC(=O)N(CC)CC

>  <label.class>
inactive

$$$$
>  <molecule>
C=C[C@](C)(O)CC[C@@H]1[C@@]2(C)CCCC(C)(C)[C@@H]2CC[C@@]1(C)O

>  <label.class>
active

$$$$
>  <molecule>
CCOC(/C=C(\C)CCC=C(C)C)OCC

>  <label.class>
inactive

$$$$
>  <molecule>
C/C=C/C(=O)Oc1c(CCCCCC(C)C)cc([N+](=O)[O-])cc1[N+](=O)[O-]

>  <label.class>
active

$$$$

Hey, just so you know, these numbers are from PubChem BioAssay (Tox21).
